System: HCC2998 (Colorectal Carcinoma);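 further: after 72 h of two-drug dosing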
measurementProtocol: Bliss excess, mean over the matrix (fraction); higher = more synergy
Below: a set of entries, each annotated with reported Bliss excess.
No unit in the answer, only the number.

NC1(C(=O)N[C@@H](CCO)c2ccc(Cl)cc2)CCN(c2ncnc3[nH]ccc23)CC1 [Capivasertib] + COc1nnc2ccc(N3CCC(c4ccc(OCCN5CCN(C)C(=O)[C@H]5C)cc4)CC3)nn12 [AZD5153] (first compound max 10 µM, 7x7, partner max 1 µM)
-0.0046
CCN(CCO)CCCOc1ccc2c(Nc3cc(CC(=O)Nc4cccc(F)c4)[nH]n3)ncnc2c1 [AZD2811] + C=CCn1c(=O)c2cnc(Nc3ccc(N4CCN(C)CC4)cc3)nc2n1-c1cccc(C(C)(C)O)n1 [AZD1775] (first compound max 1 µM, partner max 1 µM)
-0.0014
CS(=O)(=O)CCNCc1ccc(-c2ccc3ncnc(Nc4ccc(OCc5cccc(F)c5)c(Cl)c4)c3c2)o1 [Lapatinib] + C[C@@H](Oc1cc(-c2cnn(C3CCNCC3)c2)cnc1N)c1c(Cl)ccc(F)c1Cl [Crizotinib] (first compound max 10 µM, 7x7, partner max 10 µM)
-0.044

Next compound, please.
*Q* Look up Bliss excess of COc1nnc2ccc(N3CCC(c4ccc(OCCN5CCN(C)C(=O)[C@H]5C)cc4)CC3)nn12 [AZD5153] + Cn1cnc2c(F)c(Nc3ccc(Br)cc3Cl)c(C(=O)NOCCO)cc21 [Selumetinib] (first compound max 1 µM, 7x7, partner max 10 µM) and report it.
*A* 0.0118

###

Tested on: KMRC-1 (Kidney Carcinoma)
measurementProtocol: combination Emax (second highest fraction inhibited in the dose matrix, 72 h); higher = more inhibition; extreme values may be limits of the assay
Rule: combination Emax of 0.3 or more gives Satisfied; anything lower gives Not satisfied.

Would you please look over these solved cases?
N#Cc1cnc(Nc2cc(NC[C@H]3CNCCO3)c(C(F)(F)F)cn2)cn1 [SRA737] + C=CCn1c(=O)c2cnc(Nc3ccc(N4CCN(C)CC4)cc3)nc2n1-c1cccc(C(C)(C)O)n1 [AZD1775] (first compound max 10 µM, partner max 1 µM)
Satisfied
O=C(c1cc(Cc2n[nH]c(=O)c3ccccc23)ccc1F)N1CCN(C(=O)C2CC2)CC1 [Olaparib] + COc1nnc2ccc(N3CCC(c4ccc(OCCN5CCN(C)C(=O)[C@H]5C)cc4)CC3)nn12 [AZD5153] (first compound max 10 µM, 7x7, partner max 1 µM)
Not satisfied
CCN(CCO)CCCOc1ccc2c(Nc3cc(CC(=O)Nc4cccc(F)c4)[nH]n3)ncnc2c1 [AZD2811] + C[C@@H]1COCCN1C2=NC(=NC(=C2)C3(CC3)[S@](=N)(=O)C)C4=C5C=CNC5=NC=C4 [AZD6738] (first compound max 1 µM, 7x7, partner max 10 µM)
Satisfied
Cc1cc2ncnn2cc1Nc1ncc2c(n1)n(C1CCOCC1)c(=O)n2C [AZD7648] + CCN(CCO)CCCOc1ccc2c(Nc3cc(CC(=O)Nc4cccc(F)c4)[nH]n3)ncnc2c1 [AZD2811] (first compound max 10 µM, 7x7, partner max 1 µM)
Not satisfied

// next entry
*Q* Is combination Emax at least 0.3? Consider C[C@@H]1COCCN1c1cc(C2([S@](C)(=N)=O)CC2)nc(-c2ccnc3[nH]ccc23)n1 [AZD6738] + Nc1ccn([C@@H]2O[C@H](CO)[C@@H](O)C2(F)F)c(=O)n1 [Gemcitabine] (first compound max 10 µM, 7x7, partner max 0.3 µM)
*A* Satisfied

###

Test system: COLO-679 (Melanoma)
measurementProtocol: combination Emax (second highest fraction inhibited in the dose matrix, 72 h); higher = more inhibition; extreme values may be limits of the assay
endpointLabel: combination Emax
Give the figure only, with no unit attached.

Examples with answers:
COc1nnc2ccc(N3CCC(c4ccc(OCCN5CCN(C)C(=O)[C@H]5C)cc4)CC3)nn12 [AZD5153] + C[C@@H]1COCCN1C2=NC(=NC(=C2)C3(CC3)[S@](=N)(=O)C)C4=C5C=CNC5=NC=C4 [AZD6738] (first compound max 1 µM, 7x7, partner max 10 µM)
0.718
CC(=O)c1c(C)c2cnc(Nc3ccc(N4CCNCC4)cn3)nc2n(C2CCCC2)c1=O [Palbociclib] + Cc1c2c(nn1C)CSCc1cc(n(C)n1)CSc1cc(c3ccccc3c1)OCCCc1c(C(=O)O)n(C)c3c-2c(Cl)ccc13 [AZD5991] (first compound max 10 µM, 7x7, partner max 1 µM)
0.335
CCN(CCO)CCCOc1ccc2c(Nc3cc(CC(=O)Nc4cccc(F)c4)[nH]n3)ncnc2c1 [AZD2811] + O=C(c1cc(Cc2n[nH]c(=O)c3ccccc23)ccc1F)N1CCN(C(=O)C2CC2)CC1 [Olaparib] (first compound max 1 µM, 7x7, partner max 10 µM)
0.281
CC1(C)CCC(CN2CCN(c3ccc(C(=O)NS(=O)(=O)c4ccc(NCC5CCOCC5)c([N+](=O)[O-])c4)c(Oc4cnc5[nH]ccc5c4)c3)CC2)=C(c2ccc(Cl)cc2)C1 [Venetoclax] + COc1cc(Nc2ncc3c(n2)-c2ccc(Cl)cc2C(c2c(F)cccc2OC)=NC3)ccc1C(=O)O [Alisertib] (first compound max 1 µM, 7x7, partner max 10 µM)
0.282
O=C(c1cc(Cc2n[nH]c(=O)c3ccccc23)ccc1F)N1CCN(C(=O)C2CC2)CC1 [Olaparib] + Cc1c2c(nn1C)CSCc1cc(n(C)n1)CSc1cc(c3ccccc3c1)OCCCc1c(C(=O)O)n(C)c3c-2c(Cl)ccc13 [AZD5991] (first compound max 10 µM, 7x7, partner max 1 µM)
0.119
CS(=O)(=O)CCNCc1ccc(-c2ccc3ncnc(Nc4ccc(OCc5cccc(F)c5)c(Cl)c4)c3c2)o1 [Lapatinib] + NC1(c2ccc(-c3nc4ccn5c(=O)[nH]nc5c4cc3-c3ccccc3)cc2)CCC1 [MK-2206] (first compound max 10 µM, 7x7, partner max 10 µM)
0.618
C[C@@H]1COCCN1c1cc(C2([S@](C)(=N)=O)CC2)nc(-c2ccnc3[nH]ccc23)n1 [AZD6738] + O=C(c1cc(Cc2n[nH]c(=O)c3ccccc23)ccc1F)N1CCN(C(=O)C2CC2)CC1 [Olaparib] (first compound max 10 µM, 7x7, partner max 10 µM)
0.661
CCN(CCO)CCCOc1ccc2c(Nc3cc(CC(=O)Nc4cccc(F)c4)[nH]n3)ncnc2c1 [AZD2811] + C=CCn1c(=O)c2cnc(Nc3ccc(N4CCN(C)CC4)cc3)nc2n1-c1cccc(C(C)(C)O)n1 [AZD1775] (first compound max 1 µM, partner max 1 µM)
0.491
Cc1c2c(nn1C)CSCc1cc(n(C)n1)CSc1cc(c3ccccc3c1)OCCCc1c(C(=O)O)n(C)c3c-2c(Cl)ccc13 [AZD5991] + Cc1cc2ncnn2cc1Nc1ncc2c(n1)n(C1CCOCC1)c(=O)n2C [AZD7648] (first compound max 1 µM, 7x7, partner max 10 µM)
0.259
C=CCn1c(=O)c2cnc(Nc3ccc(N4CCN(C)CC4)cc3)nc2n1-c1cccc(C(C)(C)O)n1 [AZD1775] + O=C(c1cc(Cc2n[nH]c(=O)c3ccccc23)ccc1F)N1CCN(C(=O)C2CC2)CC1 [Olaparib] (first compound max 1 µM, partner max 10 µM)
0.491

*Q* Give combination Emax for this entry on COLO-679 (Melanoma): N#Cc1cnc(Nc2cc(NC[C@H]3CNCCO3)c(C(F)(F)F)cn2)cn1 [SRA737] + C=CCn1c(=O)c2cnc(Nc3ccc(N4CCN(C)CC4)cc3)nc2n1-c1cccc(C(C)(C)O)n1 [AZD1775] (first compound max 10 µM, partner max 1 µM)
*A* 0.806

*Q* Report its combination Emax with COLO-679 (Melanoma) as the test system: NC1(C(=O)N[C@@H](CCO)c2ccc(Cl)cc2)CCN(c2ncnc3[nH]ccc23)CC1 [Capivasertib] + COc1nnc2ccc(N3CCC(c4ccc(OCCN5CCN(C)C(=O)[C@H]5C)cc4)CC3)nn12 [AZD5153] (first compound max 10 µM, 7x7, partner max 1 µM)
*A* 0.578

*Q* # assay system COLO-679 (Melanoma): give combination Emax of C[C@@H](Oc1cc(-c2cnn(C3CCNCC3)c2)cnc1N)c1c(Cl)ccc(F)c1Cl [Crizotinib] + Cn1cnc2c(F)c(Nc3ccc(Br)cc3Cl)c(C(=O)NOCCO)cc21 [Selumetinib] (first compound max 10 µM, 7x7, partner max 10 µM)
*A* 0.798

*Q* Look up COLO-679 (Melanoma) data: combination Emax of CCN(CCO)CCCOc1ccc2c(Nc3cc(CC(=O)Nc4cccc(F)c4)[nH]n3)ncnc2c1 [AZD2811] + C[C@@H]1COCCN1C2=NC(=NC(=C2)C3(CC3)[S@](=N)(=O)C)C4=C5C=CNC5=NC=C4 [AZD6738] (first compound max 1 µM, 7x7, partner max 10 µM) , then report it.
*A* 0.679

###

Test system: SW982 (Other Solid Carcinomas)
measurementProtocol: combination Emax (second highest fraction inhibited in the dose matrix, 72 h); higher = more inhibition; extreme values may be limits of the assay
The label depends only on combination Emax: fulfilled if it is at least 0.6, not fulfilled if it is smaller.

*Q* Given the entry CC1(C)CCC(CN2CCN(c3ccc(C(=O)NS(=O)(=O)c4ccc(NCC5CCOCC5)c([N+](=O)[O-])c4)c(Oc4cnc5[nH]ccc5c4)c3)CC2)=C(c2ccc(Cl)cc2)C1 [Venetoclax] + C[C@@H](Nc1cc(F)cc(F)c1)c1cc(C(=O)N(C)C)cc2c(=O)cc(N3CCOCC3)oc12 [AZD8186] (first compound max 1 µM, 7x7, partner max 3 µM) , answer whether its combination Emax meets or surpasses 0.6.
*A* not fulfilled

*Q* Identify whether the reported combination Emax of the following molecule is 0.6 or greater: Cc1c2c(nn1C)CSCc1cc(n(C)n1)CSc1cc(c3ccccc3c1)OCCCc1c(C(=O)O)n(C)c3c-2c(Cl)ccc13 [AZD5991] + CC1(C)CCC(CN2CCN(c3ccc(C(=O)NS(=O)(=O)c4ccc(NCC5CCOCC5)c([N+](=O)[O-])c4)c(Oc4cnc5[nH]ccc5c4)c3)CC2)=C(c2ccc(Cl)cc2)C1 [Venetoclax] (first compound max 1 µM, 7x7, partner max 1 µM)
*A* not fulfilled

*Q* Can C=CCn1c(=O)c2cnc(Nc3ccc(N4CCN(C)CC4)cc3)nc2n1-c1cccc(C(C)(C)O)n1 [AZD1775] + O=C(c1cc(Cc2n[nH]c(=O)c3ccccc23)ccc1F)N1CCN(C(=O)C2CC2)CC1 [Olaparib] (first compound max 1 µM, partner max 10 µM) be said to have combination Emax at or above 0.6?
*A* fulfilled

*Q* Please check the record CN(CCO)CC[C@H](CSc1ccccc1)Nc1ccc(S(=O)(=O)NC(=O)c2ccc(N3CCC([C@@H](O)c4ccccc4-c4ccc(Cl)cc4)CC3)cc2)cc1S(=O)(=O)C(F)(F)F [AZD4320] + CCN(CCO)CCCOc1ccc2c(Nc3cc(CC(=O)Nc4cccc(F)c4)[nH]n3)ncnc2c1 [AZD2811] (first compound max 1 µM, 7x7, partner max 1 µM) and state if its combination Emax is at or above 0.6.
*A* fulfilled

*Q* Assess whether reported combination Emax for Cn1cnc2c(F)c(Nc3ccc(Br)cc3Cl)c(C(=O)NOCCO)cc21 [Selumetinib] + C=CCn1c(=O)c2cnc(Nc3ccc(N4CCN(C)CC4)cc3)nc2n1-c1cccc(C(C)(C)O)n1 [AZD1775] (first compound max 10 µM, partner max 1 µM) sits at 0.6 or higher.
*A* fulfilled

*Q* Reported combination Emax at or above 0.6? CC(=O)c1c(C)c2cnc(Nc3ccc(N4CCNCC4)cn3)nc2n(C2CCCC2)c1=O [Palbociclib] + Cn1cnc2c(F)c(Nc3ccc(Br)cc3Cl)c(C(=O)NOCCO)cc21 [Selumetinib] (first compound max 10 µM, 7x7, partner max 10 µM)
*A* not fulfilled

*Q* Kindly determine if combination Emax recorded for COc1nnc2ccc(N3CCC(c4ccc(OCCN5CCN(C)C(=O)[C@H]5C)cc4)CC3)nn12 [AZD5153] + Cn1cnc2c(F)c(Nc3ccc(Br)cc3Cl)c(C(=O)NOCCO)cc21 [Selumetinib] (first compound max 1 µM, 7x7, partner max 10 µM) is above or exactly 0.6.
*A* fulfilled
